Target: human CGT (ceramide galactosyltransferase), CHO/CGT lysate (Homo sapiens, UniProt Q16880)
Construct: Full-length human CGT cDNA was cloned into the BamH1/Xho1 site of pcDNA3.1 (+); expressed in transfected cells; host or cells: Chinese hamster ovary (CHO) cells; lysate prepared with M-PER
Assay: CGT enzyme assay, RapidFire/MS/MS readout (Table 1 ranges with one asterisk *)
Format: biochemical
Conditions: RapidFire method (range with one asterisk *)
Structures can show the parent of a compound that is named as a salt.
List of IC50 values.

Look over these answered cases.
compound: CN([C@@H](C(=O)N1C2CCC1CC(N)C2)C(F)(F)c1ccc(C(F)(F)F)cc1)S(=O)(=O)c1ccc2cc(OC3CCCC3)ccc2c1 (stereo partly drawn)
measurement-label: IC50
measurement: 1 to 10 µM

compound: NC1CC2CCC(C1)N2C(=O)[C@H](NS(=O)(=O)c1ccc2nn(CC3CCCC3)cc2c1)C(F)(F)c1ccc(Br)cc1 (stereo partly drawn)
measurement-label: IC50
measurement: 30 to 100 µM

compound: NC1CC2CCC(C1)N2C(=O)[C@@H](NS(=O)(=O)c1ccc(OCC2CCCCC2)cc1)C(F)(F)c1ccc(Oc2ccccc2)cc1 (stereo partly drawn)
measurement-label: IC50
measurement: 1 to 10 µM

// CN([C@@H](C(=O)N1C2CCC1CC(N)C2)C(F)(F)c1ccc(OCCN2CCOCC2)cc1)S(=O)(=O)c1ccc2cc(OC3CCCC3)ccc2c1 (stereo partly drawn) : IC50 value = 10 to 30 µM

// NC1CC2CCC(C1)N2C(=O)[C@@H](NS(=O)(=O)c1ccc(OCC2CCCCC2)cc1)C(F)(F)c1ccc(OC2CCCCC2)cc1 (stereo partly drawn) : IC50 value = < 1 µM

// CCCCOc1ccc(C(F)(F)[C@@H](NS(=O)(=O)c2ccc3cc(OC4CCCC4)ccc3c2)C(=O)N2CCC(N)CC2)cc1 : IC50 value = 1 to 10 µM

// NC1CC2CCC(C1)N2C(=O)[C@H](NS(=O)(=O)c1ccc2cc(OC3CCCC3)ccc2c1)C(F)(F)c1ccc(Oc2ccccc2)cc1 (stereo partly drawn) [Compound 86-2, trifluoroacetate] : IC50 value = 1 to 10 µM

---

List of pIC50 values.
Biological target: human CGT (ceramide galactosyltransferase), CHO/CGT lysate (Homo sapiens, UniProt Q16880)
Construct: Full-length human CGT cDNA was cloned into the BamH1/Xho1 site of pcDNA3.1 (+); expressed in transfected cells; host or cells: Chinese hamster ovary (CHO) cells; lysate prepared with M-PER
Experiment: CGT enzyme assay, RapidFire/MS/MS readout with 0.01% Tween added (Table 1 ranges with two asterisks **)
Type: biochemical
Settings: CGT enzymatic assay; range with two asterisks (**): RapidFire/MS/MS method with 0.01% Tween added
Method: Full-length human CGT cDNA was cloned into the BamH1/Xho1 site of pcDNA3.1 (+) mammalian expression vector (V90-20, Invitrogen, Carlsbad, Calif.) and the plasmid was transfected into Chinese hamster ovary (CHO) cells. […] Protein concentration was determined using a Pierce BCA protein assay kit (ThermoFisher Scientific). […] Quantitative Analysis Using the RapidFire/MS/MS Method: […]
pIC50: −log10 of the molar value. Structures can show the parent of a compound that is named as a salt.

Look over these answered cases.
compound: CCOc1cc(-c2ccc(C(F)(F)[C@H](NS(=O)(=O)c3ccc(OCC4CCCCC4)cc3)C(=O)N3CCC(N)CC3)cc2)ccc1Cl [Compound 153-1, trifluoroacetate]
pIC50: 5.00 to 6.00

compound: NC1CC2CCC(C1)N2C(=O)[C@@H](NS(=O)(=O)c1cc2ccc(OC3CCCC3)cc2s1)C(F)(F)c1ccc(Br)cc1 (stereo partly drawn) [Compound 167-1, trifluoroacetate]
pIC50: 5.00 to 6.00

compound: NC1CCN(C(=O)[C@H](NS(=O)(=O)c2ccc3cc(OC4CCCC4)ccc3c2)C(F)(F)c2ccc(Cl)c(OC3CC3)c2)CC1 [Compound 168-2]
pIC50: 4.52 to 5.00

compound: O=C([C@H](NS(=O)(=O)c1ccc(OCC2CCCCC2)cc1)C(F)(F)c1ccc(-c2ccc(Cl)cc2)cc1)N1CCNCC1 [Compound 151-2]
pIC50: 4.00 to 4.52

compound: O=C([C@@H](NS(=O)(=O)c1ccc(OCC2CCCCC2)cc1)C(F)(F)c1ccc(-c2ccc(Cl)cc2)cc1)N1CC[C@H]2CNC[C@H]21 [Compound 195-1]
pIC50: 5.00 to 6.00

compound: O=C([C@H](NS(=O)(=O)c1ccc2cc(OC3CCCC3)ccc2c1)C(F)(F)c1ccc(-c2ccc(Cl)cc2)cc1)N1CC[C@@H]2CNC[C@@H]21 [Compound 192-2]
pIC50: 4.52 to 5.00

compound: NC1CCN(C(=O)[C@@H](NS(=O)(=O)c2ccc(CCOC3CCCC3)cc2)C(F)(F)c2ccc(-c3ccc(Cl)cc3)cc2)CC1 [Compound 185-1]
pIC50: 4.52 to 5.00

compound: N[C@H]1[C@@H]2CC[C@H]1CN(C(=O)[C@@H](NS(=O)(=O)c1ccc3cc(OC4CCCC4)ccc3c1)C(F)(F)c1ccc(-c3ccc(Cl)cc3)cc1)C2 [Compound 184-1]
pIC50: 5.00 to 6.00

compound: CCOc1cc(-c2ccc(C(F)(F)[C@@H](NS(=O)(=O)c3ccc(OCC4CCCCC4)cc3)C(=O)N3CCC(N)CC3)cc2)ccc1Cl [Compound 153-2]
pIC50: 4.00 to 4.52

compound: N[C@@H]1CC2CCC1N2C(=O)[C@H](NS(=O)(=O)c1ccc2cc(OC3CCCC3)ccc2c1)C(F)(F)c1ccc(-c2ccc(Cl)cc2)cc1 (stereo partly drawn) [Compound 180-3]
pIC50: 5.00 to 6.00

// NC1CC2CCC(C1)N2C(=O)[C@H](NC(=O)[C@H](O)c1ccc(OCC2CCCCC2)cc1)C(F)(F)c1ccc(-c2ccc(Cl)cc2)cc1 (stereo partly drawn) [Compound 152-4, trifluoroacetate] : pIC50 value = 4.00 to 4.52

// O=C([C@@H](NS(=O)(=O)c1ccc2cc(OC3CCCC3)ccc2c1)C(F)(F)c1ccc(-c2ccc(Cl)cc2)cc1)N1CC[C@H]2CNC[C@H]21 [Compound 192-1] : pIC50 value = 5.00 to 6.00

// O=C([C@H](NS(=O)(=O)c1ccc2cc(OC3CCCC3)ccc2c1)C(F)(F)c1ccc(-c2ccc(Cl)cc2)cc1)N1CCC12CNC2 [Compound 191-2] : pIC50 value = 5.00 to 6.00

// N[C@@H]1CCN(C(=O)[C@H](NS(=O)(=O)c2ccc(OCC3CCCCC3)cc2)C(F)(F)c2ccc(-c3ccc(Cl)cc3)cc2)C1 [Compound 155-2] : pIC50 value = 5.00 to 6.00

// N[C@H]1[C@@H]2CC[C@H]1CN(C(=O)[C@H](NS(=O)(=O)c1ccc3cc(OC4CCCC4)ccc3c1)C(F)(F)c1ccc(Cl)cc1)C2 [Compound 150-2] : pIC50 value = 5.00 to 6.00

// C=C(c1ccc(C(F)(F)[C@H](NS(=O)(=O)c2ccc(OCC3CCCCC3)cc2)C(=O)N2CCC(N)CC2)cc1)C(F)(F)F [Compound 193-1] : pIC50 value = > 6.00

// O=C([C@H](NS(=O)(=O)c1ccc2cc(OC3CCCC3)ccc2c1)C(F)(F)c1ccc(-c2ccc(Cl)cc2)cc1)N1Cc2cn[nH]c2C1 [Compound 176-2] : pIC50 value = 4.00 to 4.52

// COc1cc(C(F)(F)[C@@H](NS(=O)(=O)c2ccc(OCC3CCCCC3)cc2)C(=O)N2CCC(N)CC2)ccc1-c1ccc(Cl)cc1 [Compound 146-2, trifluoroacetate] : pIC50 value = 5.00 to 6.00

---

Biological target: human CGT (ceramide galactosyltransferase), CHO/CGT lysate (Homo sapiens)
Construct: Full-length human CGT cDNA was cloned into the BamH1/Xho1 site of pcDNA3.1 (+); expressed in transfected cells; host or cells: Chinese hamster ovary (CHO) cells; lysate prepared with M-PER
Sequence (Q16880 21-541): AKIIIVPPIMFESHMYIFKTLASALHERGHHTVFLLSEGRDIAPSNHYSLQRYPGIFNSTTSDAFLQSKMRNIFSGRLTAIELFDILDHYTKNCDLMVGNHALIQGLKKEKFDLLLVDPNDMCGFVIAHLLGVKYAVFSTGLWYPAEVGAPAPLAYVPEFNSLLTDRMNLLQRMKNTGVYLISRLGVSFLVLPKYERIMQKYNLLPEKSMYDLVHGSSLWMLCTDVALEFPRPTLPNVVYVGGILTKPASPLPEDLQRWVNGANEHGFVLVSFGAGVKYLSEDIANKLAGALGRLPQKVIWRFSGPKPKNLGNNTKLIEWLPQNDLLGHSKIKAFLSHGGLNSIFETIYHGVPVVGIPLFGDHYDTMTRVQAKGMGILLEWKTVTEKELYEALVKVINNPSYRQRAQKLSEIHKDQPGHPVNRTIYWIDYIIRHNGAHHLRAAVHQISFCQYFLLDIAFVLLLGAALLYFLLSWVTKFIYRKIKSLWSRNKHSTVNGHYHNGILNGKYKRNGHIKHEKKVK
Assay: CGT enzyme assay, RapidFire/MS/MS readout with 0.01% Tween added (Table 1 ranges with two asterisks **)
Type: biochemical
Conditions: CGT enzymatic assay; range with two asterisks (**): RapidFire/MS/MS method with 0.01% Tween added
Counter-ions that a name gives are not always drawn.
List of IC50 values.

Look over these answered cases.
molecule: NC1CC2CCC(C1)N2C(=O)[C@H](NC(=O)C(=O)c1ccc2cc(OC3CCCC3)ccc2c1)C(F)(F)c1ccc2cc(Br)ccc2c1 (stereo partly shown) [Compound 160-2, trifluoroacetate]
IC50: 30 to 100 µM
//
molecule: NC(=O)C1CCN(C(=O)[C@H](NS(=O)(=O)c2ccc3cc(OC4CCCC4)ccc3c2)C(F)(F)c2ccc(-c3ccc(Cl)cc3)cc2)CC1
IC50: 30 to 100 µM
//
molecule: C=C(c1ccc(C(F)(F)[C@H](NS(=O)(=O)c2ccc3cc(OC4CCCC4)ccc3c2)C(=O)N2CCC(N)CC2)cc1)C(F)(F)F
IC50: 1 to 10 µM
//
molecule: N[C@H]1CCN(C(=O)[C@H](NS(=O)(=O)c2ccc(OCC3CCCCC3)cc2)C(F)(F)c2ccc(Cl)cc2)C1
IC50: 30 to 100 µM
//
molecule: N[C@H]1CCN(C(=O)[C@H](NS(=O)(=O)c2ccc3cc(OC4CCCC4)ccc3c2)C(F)(F)c2ccc(-c3ccc(Cl)cc3)cc2)CC1(F)F
IC50: 30 to 100 µM
//
molecule: CC(C)Oc1cc(C(F)(F)[C@H](NS(=O)(=O)c2ccc3cc(OC4CCCC4)ccc3c2)C(=O)N2CCC(N)CC2)ccc1Cl [Compound 172-1, trifluoroacetate]
IC50: 1 to 10 µM

// below: IC50 requested for another molecule
// NC1CCN(C(=O)[C@@H](NS(=O)(=O)c2ccc3cc(OC4CCCC4)ccc3c2)C(F)(F)c2ccc(C3(C(F)(F)F)CC3)cc2)CC1 [Compound 182-1, trifluoroacetate] : IC50 value = < 1 µM
